test system: Candida tropicalis; experiment: Inhibition of chitin synthase extracted from Candida tropicalis ATCC 750 using UDP-GlcNAc as substrate assessed as inhibition rate at 300 ug/ml by TMB based microplate analyzer relative to control; settings: dose 300.0 µg/ml
Below, each entry is listed with its recorded inhibition.
observable: inhibition

O=C(/C=C/C(=O)Nc1ccc2c(c1)NC(=O)C1(CCNC1=O)C2)Nc1ccc(F)c(Cl)c1 (racemic): 48.7%
CCCN(CCC)C(=O)/C=C/C(=O)Nc1ccc2c(c1)NC(=O)C1(CCNC1=O)C2 (racemic): 26.3%
O=C(CN1CCC(C(=O)Nc2cccc3ccccc23)CC1)Nc1ccc2c(c1)NC(=O)C1(CCNC1=O)C2 (racemic): 84%
O=C(CN1CCC(C(=O)Nc2ccccc2)CC1)Nc1ccc2c(c1)NC(=O)C1(CCNC1=O)C2 (racemic): 35.8%
Cc1ccc(NC(=O)C2CCN(CC(=O)Nc3ccc4c(c3)NC(=O)C3(CCNC3=O)C4)CC2)cc1C (racemic): 42.3%
O=C(CN1CCC(C(=O)Nc2nccs2)CC1)Nc1ccc2c(c1)NC(=O)C1(CCNC1=O)C2 (racemic): 73.9%
O=C(CN1CCC(C(=O)Nc2nc3ccccc3s2)CC1)Nc1ccc2c(c1)NC(=O)C1(CCNC1=O)C2 (racemic): 57.7%
Cc1cc([N+](=O)[O-])ccc1NC(=O)C1CCN(CC(=O)Nc2ccc3c(c2)NC(=O)C2(CCNC2=O)C3)CC1 (racemic): 85.2%
